Hi there, I'd appreciate the recorded pKi for every entry that follows.
TARGET_OR_SYSTEM: Nociceptin receptor (Rattus norvegicus, UniProt P35370)
Sequence (P35370 whole entry): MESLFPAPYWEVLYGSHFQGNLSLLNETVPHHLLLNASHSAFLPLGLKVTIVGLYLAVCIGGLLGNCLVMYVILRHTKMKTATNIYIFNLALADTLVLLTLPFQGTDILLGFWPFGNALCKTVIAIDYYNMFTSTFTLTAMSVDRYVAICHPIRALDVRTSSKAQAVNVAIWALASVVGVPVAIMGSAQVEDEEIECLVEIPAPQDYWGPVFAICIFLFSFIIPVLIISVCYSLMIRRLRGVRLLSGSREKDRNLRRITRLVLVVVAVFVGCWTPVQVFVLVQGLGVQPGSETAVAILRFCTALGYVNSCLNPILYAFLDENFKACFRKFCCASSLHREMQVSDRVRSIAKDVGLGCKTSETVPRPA
pKi: −log10 of the molar value.

{"SUBSTANCE": "H-FSEFMRQYLVLSMQSSQ-OH [OFQ II 1-17]", "TARGET_OR_SYSTEM": "Nociceptin receptor (Rattus norvegicus, UniProt P35370)", "OBSERVED_MEASUREMENT": "< 5.00"}

With those in mind, consider the next substance.
Lab book: pKi of H-FSEFMRQYLVLSMQSSQRRRTLHQNGNV-NH2 [NSC_0] noted as < 5.00

---

TARGET_OR_SYSTEM: Kappa-type opioid receptor (Rattus norvegicus)
Sequence (P34975 whole entry): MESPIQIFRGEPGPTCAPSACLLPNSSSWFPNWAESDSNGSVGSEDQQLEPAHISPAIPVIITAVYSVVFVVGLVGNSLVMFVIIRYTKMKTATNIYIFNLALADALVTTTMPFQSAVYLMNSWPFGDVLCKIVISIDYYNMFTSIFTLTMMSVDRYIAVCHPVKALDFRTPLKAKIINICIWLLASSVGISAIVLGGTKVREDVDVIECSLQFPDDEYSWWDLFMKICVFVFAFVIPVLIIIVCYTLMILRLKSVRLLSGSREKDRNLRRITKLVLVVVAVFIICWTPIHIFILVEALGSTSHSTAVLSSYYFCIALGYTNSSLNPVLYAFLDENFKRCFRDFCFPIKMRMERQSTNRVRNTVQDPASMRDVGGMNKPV
pKi: −log10 of the molar value.
MEASUREMENT_LABEL: pKi

{"SUBSTANCE": "H-FSEFMRQYLVLSMQSSQ-OH [OFQ II 1-17]", "TARGET_OR_SYSTEM": "Kappa-type opioid receptor (Rattus norvegicus)", "pKi": "< 5.00"}

Lab book: pKi of H-FSEFMRQYLVLSMQSSQRRRTLHQNGNV-NH2 [NSC_0] noted as < 5.00

---

For Delta-type opioid receptor (Rattus norvegicus, UniProt P33533), measured Ki is reported for the entries below.

{"SUBSTANCE": "H-FSEFMRQYLVLSMQSSQ-OH [OFQ II 1-17]", "TARGET_OR_SYSTEM": "Delta-type opioid receptor (Rattus norvegicus, UniProt P33533)", "Ki": "> 10 µM"}

With those in mind, consider the next substance.
Lab book: Ki of H-FSEFMRQYLVLSMQSSQRRRTLHQNGNV-NH2 [NSC_0] noted as > 10 µM

---

For Mu-type opioid receptor (Rattus norvegicus, UniProt P33535), measured pKi is reported for the entries below.
pKi: −log10 of the molar value.

{"SUBSTANCE": "H-FSEFMRQYLVLSMQSSQ-OH [OFQ II 1-17]", "OBSERVED_MEASUREMENT": "< 5.00"}

With those in mind, consider the next substance.
Lab book: pKi of H-FSEFMRQYLVLSMQSSQRRRTLHQNGNV-NH2 [NSC_0] noted as < 5.00
